system: MS2 coat protein; assay: apparent KD of MS2 coat protein; designed switch direction (-1 OFF switch, 1 ON switch): -1; higher = weaker reporter binding; conditions: Eterna round: R95; input ligand: microRNA oligo, concentration not stated

biopolymer sequence	tgt	apparent KD of MS2 coat protein, nM
CCAGGCGUCUUGGCUCGUCUUAUUUGGAGAGGAUUGAUAACAUGAGGAUCACCCAUGUGUGUGGGAGAGUUGCAGUG [JR_SV3TOV2_Sub018] (puzzle: Sensor v3, turn-off variant 2)	MS2 coat protein	425
GUGAGAUAGUUAGUGGCCGACAUGAGGAUCACCCAUGUGAGGGAAAUGUUGAGGCGAAAGCUUUUUGCUCGUCUUUA [JR_SV3TOV1_Sub037] (puzzle: Sensor v3, turn-off variant 1)	MS2 coat protein	139
GCAGGUUAAGUCAGGAUAUACCUAUGGAUACAUAGGUAGAAGGGACAUGAGGAUCACCCAUGUGACUCACCUGC [Fiskers BMX 4 - 59] (puzzle: Brourd's mod of Exclusion 4)	MS2 coat protein	25.1
GUUAAACAUGAGGAUCACCCAUGUAAGGAUAUGCUGAGGUCGCGCUGACGUGAAUGAAGCAGAAGGUACAAAUG [Mat - Mod of JL D63] (puzzle: Exclusion 1)	MS2 coat protein	76.7
AAUUCACAUGAGGAUCACCCAUGUCAGGAUAUGGUUUCACGUUUUUCUUUUCUUGAGGCCAGAAGGGACAGCUA (puzzle: Exclusion 1)	MS2 coat protein	60.1
